measurement_description: Release in artificial intestinal juice
Type: physicochemical
condition_set: t 8 min; permeable bag, amount calculated on 100 mg free base
Field: Release in artificial intestinal juice, percent of the substance released. Provide a value for each of the compounds that follow.
One number for each entry, in %.

The examples below pair each entry with its known result.
CN(C)C[C@H]1CCCC[C@]1(O)c1cccc(O)c1.Cl [HCl-1] :: 101.08
CCCCCCCCCCCCCCCC(=O)O.CN(C)CC1CCCCC1(O)c1cccc(O)c1 :: 53.71
CN(C)CC1CCCCC1(O)c1cccc(O)c1.CN(C)CC1CCCCC1(O)c1cccc(O)c1.O=C(O)C=CC(=O)O (stereo not shown) [E-1] :: 99.47

I am curious: what Release in artificial intestinal juice, percent of the substance released value has been reported for CN(C)CC1CCCCC1(O)c1cccc(O)c1.CN(C)CC1CCCCC1(O)c1cccc(O)c1.O=C(O)CCCCCCCCC(=O)O (stereo not shown) [F-2] ?
1.21
